- Tested on: HS 578T breast
- method_summary: NCI-60 one-dose screen, 48 h (100 = growth as untreated, 0 = no growth, -100 = all killed)
- run_parameters: 10 µM unless noted
The panel holds about 83,000 compounds, 20% with a hit somewhere; the sample as a whole holds those more often.
# growth >= 70% gives class 1, anything below gives class 0

| compound | cat |
| --- | --- |
| CCc1nc2ccccc2[nH]1 | class 1 |
| Cn1cc(Nc2nccc(-c3ccc(N4CCCC4)c(C#N)c3)n2)cn1 | class 0 |
| NC(=S)N/N=C/C(=O)O | class 1 |
| O=C(c1ccccc1)c1ccc(N2C(=O)C3C4c5ccccc5C(/C=C/C(=O)c5ccccn5)(c5ccccc54)C3C2=O)cc1 (stereo not given) | class 0 |
| CS(=O)(=O)c1ccc(N/N=C/c2c(-c3ccc(S(C)(=O)=O)cc3)[nH]c3ccc(F)cc23)cc1 | class 0 |
| Cc1nc(Nc2cccc(NC(=O)Nc3ccc(Cl)cc3)c2)c2ccccc2n1 | class 1 |
| COc1ccc(NC(=O)c2cccc(-c3cc(=O)c4c(O)c(OC)c(OC)cc4o3)c2)cc1 | class 0 |
| COc1cccc(-c2nc3sccn3c2-c2ccnc(NCCNS(=O)(=O)c3c(Cl)cccc3Cl)c2)c1 | class 1 |
| CCCCCCCSc1ccc(C(=O)O)cc1 | class 1 |

---

- Test system: NCI-H226 lung
- method_summary: NCI-60 one-dose screen, 48 h (100 = growth as untreated, 0 = no growth, -100 = all killed)
- run_parameters: 10 µM unless noted
This is part of a sample that, as a whole, favours compounds with a hit. Of some 83,000 tested, about 20% had one in any assay.
property_measured: growth (%)

| compound | property_measured | measurement_units | measurement |
| --- | --- | --- | --- |
| C#C[C@]1(O)CC[C@H]2[C@@H]3CC=C4c5sc(N=C(N)N)nc5CC[C@]4(C)[C@H]3CC[C@@]21C | growth | % | 35.2 |
| COc1ccc(C(=O)/C=C/C23c4ccccc4C(c4ccccc42)C2C(=O)NC(=O)C23)cc1 (centres undefined) | growth | % | 99.7 |
| Cc1nc(Nc2ccc(NC(=S)Nc3ccccc3)cc2)c2ccccc2n1 | growth | % | 97.4 |
| CN1CCN(C2=C(Cl)C(=O)c3ccccc3C2=O)CC1 | growth | % | 94.2 |
| C=C1C(=O)O[C@H]2[C@H]1CC/C(COC(=O)/C=C/C(=O)NCc1ccc(Cn3c(=O)sn(-c4ccccc4)c3=O)cc1)=C\CC[C@@]1(C)O[C@@H]21 | growth | % | 14.5 |
| CN(C)S(=O)(=O)n1cnc([C@@H]2[C@@H]3C(=O)OC[C@@H]3C[C@]23N=CN(Cc2ccccc2)C3=O)c1 | growth | % | 110 |
| CCN(CC)CCCNC(=O)c1ccc(N)cc1 | growth | % | 101 |
| Cn1cc(Nc2nccc(-c3ccc(N4CCCC4)c(C#N)c3)n2)cn1 | growth | % | 78.9 |
| O=C(CC1Sc2ccccc2NC1=O)NNc1ccc(F)cc1 (centres undefined) | growth | % | 84.4 |
| Cc1nc(Nc2ccccn2)sc1C(=O)/C=C/c1ccc(Br)cc1 | growth | % | 85.6 |
| CCN1CCN(c2ccc(Nc3cc(-c4cccnc4Nc4c(Cl)c(OC)cc(OC)c4Cl)ncn3)cc2)CC1 | growth | % | 47 |
| Nc1nc(Nc2ccc(Cl)cc2)nn1S(=O)(=O)c1ccc(-c2ccc(F)cc2)cc1 | growth | % | 84.4 |
| COc1ccc(-n2ncn(CCCCCCn3cnn(-c4ccc(OC)cc4)c3=O)c2=O)cc1 | growth | % | 80.3 |
| O=C(/C=C/C12c3ccccc3C(c3ccccc31)C1C(=O)N(c3ccccc3)C(=O)C12)c1ccc(Cl)cc1 (centres undefined) | growth | % | -10 |
| CN(C)c1ccc(C#Cc2c(F)cccc2Cl)cc1 | growth | % | 90.4 |
| C=C(C)[C@@H]1CC[C@]2(CN)CC[C@]3(C)[C@H](CC[C@@H]4[C@@]5(C)CCC(N)[C@@](C)(CO)[C@@H]5CC[C@]43C)[C@@H]12 (some centres undefined) | growth | % | 89.6 |
| COc1ccc(/C=C(\C#N)n2nnc3ccccc32)cc1 | growth | % | 1.15 |
| COc1ccc(/C=C2\COc3ccc(O)c(O)c3C2=O)c(OC)c1 | growth | % | 92.4 |
| C[C@@H](C[C@H](CCOCc1cccnc1)c1ccccc1)c1cc2ccccc2o1 | growth | % | 80.2 |

---

- Test system: DU-145 prostate
- method_summary: NCI-60 one-dose screen, 48 h (100 = growth as untreated, 0 = no growth, -100 = all killed)
- run_parameters: 10 µM unless noted
The panel holds about 83,000 compounds, 20% with a hit somewhere; the sample as a whole holds those more often.

| molecule | measurement_units | growth |
| --- | --- | --- |
| O=C(NCCOCCOCCNc1cccc2c1C(=O)N(C1CCCNC1=O)C2=O)c1cc2c(o1)C(=O)c1ccccc1C2=O (stereo not drawn) | % | -90.8 |
| CSc1nc(N)c(CNC(C)c2ccccc2)c(=O)n1C (stereo not drawn) | % | 118 |
| C#C[C@]1(O)CC[C@H]2[C@@H]3CC=C4c5sc(N=C(N)N)nc5CC[C@]4(C)[C@H]3CC[C@@]21C | % | 8.62 |
| CCCNCC(=O)Nc1ccc(C(=O)OC(C)(C)CC)cc1 | % | 101 |
| CCc1nc2ccccc2[nH]1 | % | 125 |
| N=C(N)c1ccc(-c2ccc(/C=C/c3ccccc3)s2)cc1 | % | 1.59 |
| Cc1nc2ccc(C(=O)NCc3cc(C(=O)O)c(C)o3)cc2nc1C | % | 105 |
| CCN(CC)CC(O)CNc1c2ccc(Cl)cc2nc2ccc(OC)cc12 (stereo not drawn) | % | -26.4 |
| O=C(NCCN1CCC(O)CC1)c1cc2c(o1)C(=O)c1ccccc1C2=O | % | -97.6 |
| Cc1nn(-c2ccccc2)c2c1C(c1ccc([N+](=O)[O-])cc1)C(C#N)=C(N)O2 (stereo not drawn) | % | 111 |
| COc1ccc(OC)c(/C=C2\COc3ccc(O)cc3C2=O)c1 | % | 107 |
| C=C(CNCCc1ccc(O)cc1)[C@@H]1CC[C@]2(COC3CCCCO3)CC[C@]3(C)[C@H](CC[C@@H]4[C@@]5(C)CCC(NCCO)C(C)(C)[C@@H]5CC[C@]43C)[C@@H]12 (stereo partly drawn) | % | -91.9 |
| COc1ccc(/C=C(\C#N)n2nnc3ccccc32)cc1 | % | -5.07 |
| Cc1cc(Cc2cc(C)cc(C(C)(C)C)c2O)c(O)c(C(C)(C)C)c1 | % | 43.5 |
| CC1=NN(c2cccc(Cl)c2)C(=O)/C1=C\c1cn(CC(O)CN2CCCCC2)c2ccccc12 (stereo not drawn) | % | 96.7 |
| CCn1c(Sc2nnc(NC(C)=O)s2)nc2c1c(=O)n(C)c(=O)n2C | % | 99.2 |
| CN(C)c1ccc(/C=C2\C=C(c3ccccc3)N(CCc3ccccc3)C2=O)cc1 | % | 60.4 |
| CC[C@]1(O)C[C@H]2CN(CCc3c([nH]c4ccccc34)[C@@](C(=O)OC)(c3cc4c(cc3OC)N(C=O)[C@H]3[C@@](O)(C(=O)OC)[C@H](OC(C)=O)[C@]5(CC)C=CCN6CC[C@]43[C@@H]65)C2)C1 | % | -42.5 |
| CC(=O)OCCc1ccccc1 | % | 134 |
| CCN1CCN(c2ccc(Nc3cc(-c4cccnc4Nc4c(Cl)c(OC)cc(OC)c4Cl)ncn3)cc2)CC1 | % | 62.9 |
| Cc1c2c(cn1Cc1ccccc1)CCc1cn(C)nc1-2 | % | 111 |
| COc1ccc(CN2C(=O)/C(=C\c3cc(OC)c(OC)c(OC)c3)c3ccccc32)cc1 | % | 9.87 |
| C=C1C(=O)O[C@H]2[C@H]1CC/C(C(=O)NCCCCCCCCNC(=O)/C1=C/CC[C@@]3(C)O[C@H]3[C@H]3OC(=O)C(=C)[C@@H]3CC1)=C\CC[C@@]1(C)O[C@@H]21 | % | 84.1 |
| Cc1cc(Cl)nc(N(CCCNc2ccnc3cc(Cl)ccc23)Cc2ccccn2)n1 | % | 66.2 |
| COc1cc2ccccc2cc1C(=O)NC(=S)Nc1ccc(-c2nc3ccccc3[nH]2)cc1 | % | 56.1 |
| O[C@H]1CO[C@H]2[C@@H]1OC[C@@H]2Oc1ccc(Nc2ccnc(Nc3ccc(O[C@H]4CO[C@H]5[C@@H]4OC[C@@H]5O)c(Cl)c3)n2)cc1Cl | % | 7.26 |
| N#Cc1c(-c2ccc(C(F)(F)F)cc2)cc(N2CC(O)C2)n2c1nc1ccccc12 | % | 71.4 |
| CC(C)N(CCOC(=O)Nc1ccccc1Cl)C(C)C | % | 105 |
| COc1cc2c(cc1OC)-c1ccc3cc4c(cc3c1N(CCCN1CCCCC1)C2)OCO4 | % | 51.1 |
| Cc1c(C(=O)O[C@H]2[C@@H]3[C@H](C)CC[C@H]3[C@]3(C)O[C@@]2(C2CCCCC2)C[C@H]3OC(=O)CO)ccc2ccccc12 | % | 58.7 |
| NS(=O)(=O)c1cn(-c2ncnc3nc[nH]c23)ccc1=O | % | 103 |
| C=CCOc1cccc(/C=C2\SC(=Nc3ccc(O)cc3)NC2=O)c1 | % | 5.29 |
| C=C1C(=O)O[C@H]2[C@H]1CC/C(COC(=O)NCc1ccc(Cn3c(=O)sn(CCCCl)c3=O)cc1)=C\CC[C@@]1(C)O[C@@H]21 | % | 8.01 |
| NC(=S)N/N=C/C(=O)O | % | 106 |
| CCCCCCNC(=O)c1cc(NCc2cc(O)ccc2O)ccc1O | % | 92.6 |
| Cc1cc(-c2ccc(N(C)C)cc2)c2sc(=O)[nH]c2n1 | % | 98.8 |
| Nc1ccc(S(=O)(=O)Nc2ccsc2-c2nc(-c3ccccc3)no2)cc1 | % | 76.5 |
| COc1ccc(Oc2nc(Nc3ccc(N4CCCCC4)nc3)ncc2NC(=O)c2cc(OC)cc(OC)c2)cc1 | % | 40.7 |
